target: KRas Q61H (Homo sapiens, UniProt P01116, Q61H); experiment: KRas binding assay (TR-FRET displacement), KRas Q61H; conditions: TR-FRET displacement
Sequence (P01116 1-169 isoform P01116-2 Q61H): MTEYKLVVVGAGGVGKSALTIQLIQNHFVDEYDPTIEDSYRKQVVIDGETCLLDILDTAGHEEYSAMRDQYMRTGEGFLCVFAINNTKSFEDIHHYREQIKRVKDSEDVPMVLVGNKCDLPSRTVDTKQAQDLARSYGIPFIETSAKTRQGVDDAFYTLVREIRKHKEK
MEASUREMENT_TYPE: IC50 (nM)

Solved entries:
• CCc1cccc2cccc(N3CCc4c(nc(OCC5(CN(C)C)CC5)nc4N4CCn5nnc(CO)c5C4)C3)c12 = 11500
• CCc1cccc2cccc(N3CCc4c(nc(OCC5(CN(C)C)CC5)nc4N4Cc5nncn5C(C)C4)C3)c12 (stereo not drawn) = 5920
• CCc1cccc2cccc(N3CCc4c(nc(OCC5(CN(C)C)CC5)nc4NCCc4sc(N)nc4C)C3)c12 = 2030
• CCc1cccc2cccc(N3CCc4c(nc(OCC5(CN(C)C)CC5)nc4NCc4c(C)nnn4CC)C3)c12 = 190
• O=C1CC2(CCCN(c3nc(OCC45CCCN4CCC5)nc4c3CCN(c3cc(O)cc(Cl)c3C3CC3)C4)C2)N1 (stereo not drawn) = 5

A = CCc1cccc2cccc(N3CCc4c(nc(OCC5(CN(C)C)CC5)nc4NCc4ncc5c(n4)CCOC5)C3)c12
B = CCc1cccc2cccc(N3CCc4c(nc(OCC5(CN(C)C)CC5)nc4NC4CN(c5nncs5)C4)C3)c12
C = Cc1cc2[nH]ncc2c(N2CCc3c(nc(OCC4(CN(C)C)CC4)nc3N3CCC[C@]4(C3)NC(=O)NC4=O)C2)c1C
D = CCc1cccc2cccc(N3CCc4c(nc(OCC5(CN(C)C)CC5)nc4N4CCOC(C(F)F)CC4)C3)c12 (stereo not drawn)
Please order the records by their reported IC50, lowest number first. Give the order by naming the labels one after another as requested.
C, D, B, A

A = CN1CCC[C@H]1COc1nc2c(c(N3CCCC4(CC(O)C4)C3)n1)CCN(c1cccc3cccc(Cl)c13)C2 (stereo partly drawn)
B = O=C1NCC2(CCCN(c3nc(OCC45CCCN4CCC5)nc4c3CCN(c3cc(O)cc(Cl)c3C3CC3)C4)C2)N1 (stereo not drawn)
Identify the item whose IC50 is the smaller number: A or B // return label of chosen record
B

1 = O=C1NC(=O)C2CN(c3nc(OCC45CCCN4CCC5)nc4c3CCN(c3cc(O)cc(Cl)c3C3CC3)C4)CC12 (stereo not drawn)
2 = CCc1cccc2cccc(N3CCc4c(nc(OCC5(CN(C)C)CC5)nc4NCc4ccnn4CC(F)F)C3)c12
3 = CCc1cccc2cccc(N3CCc4c(nc(OCC5(CN(C)C)CC5)nc4N4CCC(n5cn[nH]c5=O)CC4)C3)c12
List items by IC50 in falling order. As an answer, provide the labels arranged in the order called for.
3, 2, 1

P = CCc1cccc2cccc(N3CCc4c(nc(OCC5(CN(C)C)CC5)nc4NCc4nnnn4C4CCC4)C3)c12
Q = Cc1cc2[nH]ncc2c(N2CCc3c(nc(OCC45CCCN4CCC5)nc3N3CCCC4(CC(=O)N4)C3)C2)c1C (stereo not drawn)
Lower IC50: P or Q ? Lab log: write the label of the selected item as the result.
Q

Values were extracted from patent US20250368649A1.
